Tested on: human embryonic fibroblasts HEF
Procedure text: MTT cytotoxicity assay, HEF (control cells)
Assay type: cell-based
Reported conditions: Fibroblast, 72 h, n = 3, ± SD, read-out: Adhesive Cell Cultures, IC50 HEF
Could you please mark satisfied for values of IC50 below 20 µM and not satisfied for values at or above it?

Hello, I'm reviewing records and need to know if IC50 of C=C1C2=C(C(=O)N1OC)[C@@H](NC)[C@@](C)(O)[C@H](CCCCC)O2 is below 20 µM. Could you check?
not satisfied

Hello, I'm reviewing records and need to know if IC50 of C=C1C2=C(C(=O)N1OC)[C@@H](NCCCCO)[C@@](C)(O)[C@H](CCCCC)O2 is below 20 µM. Could you check?
satisfied

Continuing:
Hello, I'm reviewing records and need to know if IC50 of C=C1C2=C(C(=O)N1OC)[C@@H](NCc1ccccc1)[C@@](C)(O)[C@H](CCCCC)O2 is below 20 µM. Could you check?
not satisfied

Hello, I'm reviewing records and need to know if IC50 of C=C1C2=C(C(=O)N1OC)[C@@H](N1CCCC1)[C@@](C)(O)[C@H](CCCCC)O2 is below 20 µM. Could you check?
satisfied

Hello, I'm reviewing records and need to know if IC50 of COc1cc([C@@H]2c3cc4c(cc3[C@@H](O[C@@H]3O[C@@H]5CO[C@@H](C)O[C@H]5[C@H](O)[C@H]3O)[C@H]3COC(=O)[C@H]23)OCO4)cc(OC)c1O [Etoposide, etoposide, reference compound] is below 20 µM. Could you check?
not satisfied

Hello, I'm reviewing records and need to know if IC50 of C=C1C2=C(C(=O)N1OC)[C@H](O)[C@@](C)(O)[C@H](CCCCC)O2 [PPA, phaeosphaeride A] is below 20 µM. Could you check?
satisfied

Hello, I'm reviewing records and need to know if IC50 of C=C1C2=C(C(=O)N1OC)[C@@H](N1CCC(N3CCCC3)CC1)[C@@](C)(O)[C@H](CCCCC)O2 is below 20 µM. Could you check?
not satisfied

Hello, I'm reviewing records and need to know if IC50 of C=C1C2=C(C(=O)N1OC)[C@@H](N1CCC(O)CC1)[C@@](C)(O)[C@H](CCCCC)O2 is below 20 µM. Could you check?
satisfied

Hello, I'm reviewing records and need to know if IC50 of C=C1C2=C(C(=O)N1OC)[C@@H](NCCO)[C@@](C)(O)[C@H](CCCCC)O2 is below 20 µM. Could you check?
satisfied

Hello, I'm reviewing records and need to know if IC50 of C=CCN[C@@H]1C2=C(O[C@@H](CCCCC)[C@]1(C)O)C(=C)N(OC)C2=O is below 20 µM. Could you check?
satisfied
